- System: SK-OV-3 ovarian
- test_protocol: NCI-60 one-dose screen, 48 h
- condition_set: 10 µM unless noted
Compounds without any hit were thinned out: in the full panel of roughly 83,000, 20% have a hit. The source made the active and inactive calls. The calls were made as follows: active = growth percent below 10; inactive = the rest.
Just give me one of these, please: t for active, f for inactive

>>> qualitative_label("CC(C)(c1ccccc1)c1cc(O)c(C(C)(C)c2ccccc2)cc1O")
"f"
>>> qualitative_label("O=C1/C(=C/c2cc(F)cc(F)c2)Cc2cc(F)cc(F)c21")
"f"

Hi team, can someone confirm the assay call for `Cc1ccccc1Nc1n[nH]c(Cc2ccccc2)n1` ?
f

Hi team, can someone confirm the assay call for `Oc1ccccc1-c1nnc(COc2ccc(Cl)cc2Cl)o1` ?
f

Hi team, can someone confirm the assay call for `COc1ccc(Cl)cc1Nc1nc(C(F)(F)F)ccc1C(=O)NN` ?
t

Hi team, can someone confirm the assay call for `CCCCOc1nc2ccccc2cc1/C=C/c1cc(/C=C/c2cc3ccccc3nc2OCCCC)n(-c2ccccc2)n1` ?
f

Hi team, can someone confirm the assay call for `O=[N+]([O-])c1ccc(Sc2nc(Cl)nc(NC3CCCC3)n2)cc1` ?
t

Hi team, can someone confirm the assay call for `COc1ccc(/C=C/c2nc3ccccc3c(=O)n2-c2ccc(C#Cc3ccc(C(C)(C)C)cc3)cc2C)c(OC)c1` ?
f
